Would you kindly list IC50 for each of these compounds?
# test-target: Serine/threonine-protein kinase pim-2 (Homo sapiens)
# Sequence (Q9P1W9 whole entry): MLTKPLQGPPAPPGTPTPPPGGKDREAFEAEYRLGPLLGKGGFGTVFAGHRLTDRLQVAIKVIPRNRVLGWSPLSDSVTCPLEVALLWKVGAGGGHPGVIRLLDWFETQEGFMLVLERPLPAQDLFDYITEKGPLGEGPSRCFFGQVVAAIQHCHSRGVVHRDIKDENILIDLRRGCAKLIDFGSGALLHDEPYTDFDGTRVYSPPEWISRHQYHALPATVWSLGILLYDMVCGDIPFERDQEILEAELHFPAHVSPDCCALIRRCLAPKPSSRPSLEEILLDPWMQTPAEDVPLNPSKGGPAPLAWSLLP
# assay-name: Homogeneous Time Resolved Fluorescence Assay (HTRF): The assay for the determination of Pim activity is based on the formation of phosphorylated biotinylated-BAD peptide at the Serine 112 residue (S112) and employs HTRF® (homogeneous time resolved fluorescence) technology to detect the product in a 384-well plate format. The phosphorylation of biotinylated-BAD (S112) peptide by full length recombinant Pim-1, Pim-2, or Pim-3 protein was detected with streptavidin:Allophycocyanin (APC) conjugate and a europium (Eu) labeled antibody directed against phosphorylated-BAD (S112). Excitation of Eu by a high energy laser light (337 nm) leads to a transfer of energy to the APC molecule, and results in an emission at 665 nm. The fluorescence is directly proportional to the amount of phosphorylated BAD peptide present in the reaction. […] A reference compound was included on each assay plate [Costar 3658] in order to validate that plate; on one plate of every assay run, two additional reference compounds were included. The Reaction Buffer consisted of 45 mM Hepes, pH 7.0, 15 mM NaCl, and 1 mM MgCl. The quench/detection buffer consisted of 50 mM Tris, 100 mM NaCl, 0.05% BSA, 0.1% Tween and 3 mM EDTA. Biotinylated BAD peptide (Biopeptide), 10 mM ATP (Sigma), Labeled p-BAD (S112) mAb (Cell Signalling and Perkin Elmer) [with 0.05% BSA and 2 mM DTT added] streptavidin:Allophycocyanin [Perkin Elmer]. Final concentrations either Pim-1 enzyme [5 pM], or Pim-2 enzyme [0.5 pM], DMSO [1%], BLC BAD (S112) [0.5 μM], ATP [1.5 μM], streptavidin:Allophycocyanin [0.002 mg/mL] and biotinylated-BAD (S112) mAb [100 pM]. Initial incubations were carried out at RT (22° C.) for 30 min for both Pim-1 and for Pim-2. Pim enzyme is added to compound in buffer, and plates are incubated of 30 min. Biotinylated BAD and ATP are added and plates are incubated for 1 h. A mixture of labeled p-BAD (S112) mAb and quench/detection buffer are added and incubated for 2 h. Fluorescence was measured by an HTRF® Envision microplate reader.
Answers are plain numbers, in nM.

# return IC50 for each item in the list
1. Cc1nc2cccc(-c3cc4c([nH]3)CCNC4=O)c2nc1N[C@H]1C[C@@H](N(C)C)C1
2. Cn1c(NC(C)(C)C)nc2c(-c3cc4c([nH]3)CNC4=O)cccc2c1=O
3. CC1(C)CCCN1c1cnc2cccc(-c3cc4c([nH]3)CCNC4=O)c2n1

Output line:
[4, 0.193, 0.8]

# return IC50 for each item in the list
1. CC(C)(C)Nc1ccc2cccc(-c3cc4c([nH]3)CCNC4=O)c2n1
2. Cc1nc2cccc(-c3cc4c([nH]3)CCN/C4=N/O)c2nc1NC(C)(C)C
3. Cc1nc2cccc(-c3cc4c([nH]3)CCNC4=O)c2nc1-c1ccc(N)cc1Cl
4. Cc1nc2cccc(-c3cc4c([nH]3)CCNC4=O)c2nc1NC(C)(C)C(N)=O
5. Cc1nc2cccc(-c3cc4c([nH]3)CCNC4=O)c2nc1NC(C)C(C)C (racemic)

Output line:
1.11
12
33.4
22.7
1.8

# return IC50 for each item in the list
1. CC1(C)CCN1c1cnc2cccc(-c3cc4c([nH]3)CCNC4=O)c2n1
2. Cc1nc2cccc(-c3cc4c([nH]3)CCNC4=O)c2nc1NC(C)(C)CCS(C)(=O)=O
3. Nc1nc2cccc(-c3cc4c([nH]3)CCNC4=O)c2nc1Oc1ccccc1
4. Cc1nc2cccc(-c3cc4c([nH]3)CCNC4=O)c2nc1-c1cccnc1Cl
5. Cc1nc2cccc(-c3cc4c(n3C)C(CO)NC4=O)c2nc1NC(C)(C)C (racemic)
6. Cc1nc2cccc(-c3cc4c([nH]3)C(CO)NC4=O)c2nc1NC(C)(C)C (racemic)

Output line:
[0.8, 98.6, 1.8, 187, 7.8, 2.16]

The value of IC50 measured for the compound Cc1nc2cccc(-c3cc4c([nH]3)CCNC4=O)c2nc1N[C@H]1C[C@@H](NCC(F)F)C1 turned out to be 2
